# TARGET_OR_SYSTEM: Adenosine receptor A2a (Bos taurus)
# EXPERIMENTAL_PROTOCOL: Binding affinity against adenosine A2 receptor in bovine striatal membranes using [3H]-CGS-21,680 as radioligand
EXPERIMENTAL_ENDPOINT: Ki

Incoming: So what does the record say about Ki for `Cc1ccc2c(O)ccnc2n1` ?
Outgoing: > 10 µM

Incoming: So what does the record say about Ki for `Oc1cc(-c2ccccc2)nc2nc(N3CCNCC3)ccc12` ?
Outgoing: > 10 µM

Incoming: Can you share its Ki? I mean this compound: `CSc1cc(-c2ccccc2)nc2nc(C)ccc12`
Outgoing: > 10 µM

---

# TARGET_OR_SYSTEM: Adenosine receptor A1 (Homo sapiens, UniProt P30542)
# Sequence (P30542 whole entry): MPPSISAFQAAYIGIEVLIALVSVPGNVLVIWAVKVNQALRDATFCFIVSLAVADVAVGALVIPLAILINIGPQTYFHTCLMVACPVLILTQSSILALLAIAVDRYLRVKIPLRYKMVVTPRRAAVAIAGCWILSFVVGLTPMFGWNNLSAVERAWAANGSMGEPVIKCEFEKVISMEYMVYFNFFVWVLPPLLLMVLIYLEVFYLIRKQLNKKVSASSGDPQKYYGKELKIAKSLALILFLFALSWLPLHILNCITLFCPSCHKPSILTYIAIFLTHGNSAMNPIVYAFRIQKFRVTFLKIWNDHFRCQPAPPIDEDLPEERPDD
# EXPERIMENTAL_PROTOCOL: Displacement of [3H]DPCPX from adenosine A1 receptor in human brain cortical membranes
# Assay type: cell membranes
EXPERIMENTAL_ENDPOINT: pKi
Expect pKi as a plain number equal to -log10 of the molar concentration.

Incoming: May I ask what pKi has been recorded for `CN(C)c1ccc2c(O)cc(-c3ccccc3)nc2n1` ?
Outgoing: 5.86

Incoming: Requested read-out: pKi. Entry: `CC(=O)Nc1ccc(-c2cc(O)c3ccc(C)nc3n2)cc1`
Outgoing: 5.84

Incoming: Would you kindly share the measured pKi for `Oc1cc(-c2ccccc2)nc2nc(Br)ccc12` ?
Outgoing: 6.47

Incoming: Data request, read-out pKi, for `Oc1cc(-c2ccccc2)nc2nc(Cl)ccc12`
Outgoing: 6.17

Incoming: Which pKi value is on record for `CCCc1cc(O)c2ccc(C)nc2n1` ?
Outgoing: 5.84

Incoming: State the recorded pKi for this entry: `Cc1ccc2c(NC3CCCCC3)cc(-c3ccccc3)nc2n1`
Outgoing: 6.35
